Here's a roundup of IC50 values tested on UniProt:Q02763, taken from various published works.

[
  {
    "Structure": "Cn1ccnc1C(=O)c1cc(=O)c2cc(O)ccc2o1",
    "IC50": "> 10 µM"
  },
  {
    "Structure": "COc1cc(Nc2ncnc(Nc3ccc(O)cc3)n2)cc(OC)c1OC",
    "IC50": "> 12.2 µM"
  },
  {
    "Structure": "CCc1cc(F)cc(NC(=O)N2CCN(c3ncccc3OCc3ccnc(N)n3)CC2)c1",
    "IC50": "< 0.05 µM"
  },
  {
    "Structure": "OCc1cccc(Nc2ncnc(Nc3cc(-c4ccco4)n[nH]3)n2)c1",
    "IC50": "10 to 12.9 µM"
  },
  {
    "Structure": "Cc1nc2c(-c3cccc(N4C[C@@H](C)O[C@@H](C)C4)c3)cnn2c(N)c1-c1cccc(Cl)c1",
    "IC50": "1 to 10 µM"
  }
]

----------
Here's a roundup of IC50 values tested on Angiopoietin-1 receptor (Homo sapiens, UniProt Q02763), taken from various published works.
Quantity Kind: IC50

[
  {
    "Molecule": "CCc1cc(NC(=O)N2CCN(c3ccccc3OCc3ccnc(N)n3)CC2)cc(C(F)(F)F)c1",
    "Recorded Measurement": "< 0.05 µM"
  },
  {
    "Molecule": "Oc1ccc(-c2nc(N[C@H]3c4ccccc4C[C@H]3O)c3ccccc3n2)cn1",
    "Recorded Measurement": "≥ 10 µM"
  },
  {
    "Molecule": "COc1ccc(Nc2ncnc(Nc3cc(OC)c(OC)c(OC)c3)n2)cc1O",
    "Recorded Measurement": "8.76 to 11.3 µM"
  },
  {
    "Molecule": "Nc1nc2ccccc2n1-c1ncnc(Nc2cccnc2)n1",
    "Recorded Measurement": "> 14.8 µM"
  },
  {
    "Molecule": "CC1CN(c2nsnc2OCc2ccncc2)CC(C)N1C(=O)Nc1cc(C(F)(F)F)cc(C(F)(F)F)c1 (stereo not drawn)",
    "Recorded Measurement": "0.05 to 1 µM"
  },
  {
    "Molecule": "CN(C(=O)N1CCN(c2ncccc2OCc2ccnc(N)n2)CC1)c1cc(C(F)(F)F)cc(C(F)(F)F)c1",
    "Recorded Measurement": "< 0.05 µM"
  },
  {
    "Molecule": "CCOC(=O)Cc1ccc(Nc2ncnc(Nc3cc(-c4ccco4)n[nH]3)n2)cc1",
    "Recorded Measurement": "> 11.1 µM"
  },
  {
    "Molecule": "COc1ccc(-c2nc(-c3ccncc3)nn2CCN(C(=O)Nc2cc(C)ccc2OC)C2CCCC2)cc1Cl",
    "Recorded Measurement": "≥ 10 µM"
  },
  {
    "Molecule": "COc1cc(Nc2ncnc(N3c4ccccc4CCC3C)n2)cc(OC)c1OC (stereo not drawn)",
    "Recorded Measurement": "0.982 to 5.89 µM"
  },
  {
    "Molecule": "O=C(O)Cc1ccc(Nc2ncnc(Nc3cc(-c4ccccc4)n[nH]3)n2)cc1",
    "Recorded Measurement": "1.03 to 6.2 µM"
  },
  {
    "Molecule": "COc1ccc(-c2nc(-c3ccncc3)nn2CCN(C(=O)Nc2c(C)cccc2Cl)C2CCCC2)cc1Cl",
    "Recorded Measurement": "≥ 10 µM"
  },
  {
    "Molecule": "O=C(Nc1cc(C(F)(F)F)cc(C(F)(F)F)c1)N1CCN(c2nsnc2OCc2ccncn2)CC1",
    "Recorded Measurement": "0.05 to 1 µM"
  },
  {
    "Molecule": "COc1cc(Nc2ncnc(-n3ccc4cc(O)ccc43)n2)cc(OC)c1OC",
    "Recorded Measurement": "6.1 to 8.9 µM"
  },
  {
    "Molecule": "O=C(Nc1nccc(COc2nsnc2N2CCN(C(=O)Nc3cc(C(F)(F)F)cc(C(F)(F)F)c3)CC2)n1)c1ccccc1",
    "Recorded Measurement": "0.05 to 1 µM"
  },
  {
    "Molecule": "COc1cc(Nc2ncnc(NN3CCCC3)n2)cc(OC)c1OC",
    "Recorded Measurement": "> 13 µM"
  },
  {
    "Molecule": "CCc1nc(-c2ccncc2)nn1CCN(C(=O)Cc1cccc2ccccc12)C1CCCC1",
    "Recorded Measurement": "< 0.05 µM"
  },
  {
    "Molecule": "COc1cc(Nc2ncnc(Nc3[nH]ncc3-c3cccs3)n2)cc(OC)c1OC",
    "Recorded Measurement": "> 10.6 µM"
  },
  {
    "Molecule": "COc1cc(Nc2ncnc(N(CC(=O)OC(C)(C)C)c3ccc(Cl)cc3)n2)cc(OC)c1OC",
    "Recorded Measurement": "6.97 to 8.96 µM"
  },
  {
    "Molecule": "c1ccc2c(NCCN3CCOCC3)nc(-c3ccncc3)nc2c1",
    "Recorded Measurement": "≥ 10 µM"
  },
  {
    "Molecule": "O=C(Nc1cccc(C(F)(F)F)c1)N1CCCN(c2nccnc2OCc2ccncc2)CC1",
    "Recorded Measurement": "0.05 to 1 µM"
  },
  {
    "Molecule": "COc1ccc(-c2nc(-c3ccncc3)nn2CCN(C(=O)Nc2cccc(C(F)(F)F)c2)C2CCCC2)cc1Cl",
    "Recorded Measurement": "≥ 10 µM"
  },
  {
    "Molecule": "CC(=O)NCc1ccc(Nc2ncnc(Nc3cc(-c4ccco4)n[nH]3)n2)cc1",
    "Recorded Measurement": "> 11.5 µM"
  },
  {
    "Molecule": "COc1cc(Nc2ncnc(Nc3cc(-c4ccc(C)cc4)n[nH]3)n2)cc(OC)c1OC",
    "Recorded Measurement": "> 10.4 µM"
  },
  {
    "Molecule": "COc1cc(Nc2ncnc(-c3c(O)[nH]c4ccccc34)n2)cc(OC)c1OC",
    "Recorded Measurement": "> 11.4 µM"
  },
  {
    "Molecule": "COC(=O)c1cc(OC)c(OC)cc1Nc1ncnc(-n2c(N)nc3ccccc32)n1",
    "Recorded Measurement": "> 10.7 µM"
  },
  {
    "Molecule": "OC[C@@H](Cc1ccccc1)Nc1nc(-c2ccncc2)nc2ccccc12",
    "Recorded Measurement": "≥ 10 µM"
  },
  {
    "Molecule": "COc1cc(Nc2ncnc(N3CCc4ccccc43)n2)cc(OC)c1OC",
    "Recorded Measurement": "> 11.9 µM"
  },
  {
    "Molecule": "C#Cc1cccc(Nc2ncnc(Nc3ccc(OC)c(OC)c3)n2)c1",
    "Recorded Measurement": "> 13 µM"
  },
  {
    "Molecule": "CCc1cc(NC(=O)N2CCN(c3nccnc3OCc3ccnc(N)n3)CC2)ccc1F",
    "Recorded Measurement": "< 0.05 µM"
  },
  {
    "Molecule": "Oc1ccc(Nc2ncnc(-c3ccccc3)n2)cc1",
    "Recorded Measurement": "> 17 µM"
  },
  {
    "Molecule": "COc1cc(OC)cc(C(=O)c2c[nH]c3ncc(-c4cccc(NS(C)(=O)=O)c4)cc23)c1",
    "Recorded Measurement": "≤ 10 µM"
  },
  {
    "Molecule": "COc1cc(Nc2ncnc(-n3c(Nc4ccc(C(C)C)cc4)nc4ccccc43)n2)cc(OC)c1OC",
    "Recorded Measurement": "> 8.8 µM"
  },
  {
    "Molecule": "CN1CCN(CCOC(=O)Nc2cc(COc3nsnc3N3CCN(C(=O)Nc4cc(C(F)(F)F)cc(C(F)(F)F)c4)CC3)ccn2)CC1",
    "Recorded Measurement": "< 0.05 µM"
  }
]
